Value source: patent US9480259B2

Could you please report measured EC50 for the items listed next?
Target: Arabidopsis thaliana SHMT
Experiment: SHMT activity assay (ED50 SHMT), coupled with N5,N10-CH2-THF dehydrogenase, NADH at 340 nm
Assay type: biochemical
Conditions: Table 2; values given as upper bounds

Field: EC50. Fill in for each record below.
1. CCC1(c2cccc(C(F)(F)F)c2)C(C#N)=C(N)Oc2[nH]nc(CCC(F)F)c21 (stereo not drawn)
2. Cc1n[nH]c2c1C(c1cc(C#N)cc(-c3cc(F)cc(C(=O)O)c3)c1)(C1CCC1)C(C#N)=C(N)O2 (stereo not drawn)
3. Cc1n[nH]c2c1C(c1cccc(Cl)c1)(C1CCC1)C(C#N)=C(N)O2 (stereo not drawn)
4. Cc1n[nH]c2c1C(c1cc(Cl)cc(Cl)c1)(C(C)F)C(C#N)=C(N)O2 (stereo not drawn)
5. CCCCCCc1n[nH]c2c1C(CC)(c1cccc(Cl)c1)C(C#N)=C(N)O2 (stereo not drawn)

Reply:
["< 10000 nM", "< 10 nM", "< 100 nM", "< 10 nM", "< 1000 nM"]

Task item: May I ask what EC50 has been recorded for Cc1n[nH]c2c1C(c1cc(C#N)cc(C#N)c1)(C1(F)CCC1)C(C#N)=C(N)O2 (stereo not drawn) ?
Reply: < 100 nM

---

Molecular target: Arabidopsis thaliana SHMT
Assay: SHMT activity assay (ED50 SHMT), coupled with N5,N10-CH2-THF dehydrogenase, NADH at 340 nm
Type: biochemical
Conditions: Table 2; values given as upper bounds
Could you please report measured EC50 for the items listed next?

Cc1n[nH]c2c1C(c1cc(OCc3nnn[nH]3)cc(C(F)(F)F)c1)(C1CCC1)C(C#N)=C(N)O2 (stereo not shown) [Compound 2.474] :: < 10 nM
Cc1n[nH]c2c1C(c1cc(C(F)(F)F)cc(C(F)(F)F)c1)(C1(F)COC1)C(C#N)=C(N)O2 (racemic) [Compound 2.501] :: < 10 nM
Cc1n[nH]c2c1C(c1cc(CNC(=O)CCC(=O)O)cc(C(F)(F)F)c1)(C1CCC1)C(C#N)=C(N)O2 (stereo not shown) [Compound 2.649] :: < 10 nM

Please look at the following molecule next.
Task item: May I ask what EC50 has been recorded for Cc1n[nH]c2c1C(c1ccc(Cl)c(Cl)c1)(C1CCCC1)C(C#N)=C(N)O2 (stereo not shown) [Compound 2.210.] ?
Reply: < 100 nM

---

Could you please report measured EC50 for the items listed next?
Target: Arabidopsis thaliana SHMT
Assay: SHMT activity assay (ED50 SHMT), coupled with N5,N10-CH2-THF dehydrogenase, NADH at 340 nm
Format: biochemical
Settings: Table 2, Arabidopsis thaliana SHMT enzyme assay; values given as upper bounds

CC(C)C1(c2cc(Br)cc(Br)c2)C(C#N)=C(N)Oc2[nH]ncc21 (stereo not shown) :: < 10 nM
Cc1n[nH]c2c1C(c1cc(C#N)cc(C#N)c1)(C(C)C)C(C#N)=C(N)O2 (stereo not shown) :: < 10 nM
Cc1n[nH]c2c1C(c1cc(Cl)cc(-c3ccccn3)c1)(C1CCC1)C(C#N)=C(N)O2 (stereo not shown) :: < 10 nM
Cc1n[nH]c2c1C(c1ccc(OC(F)(F)F)c(Cl)c1)(C1CCC1)C(C#N)=C(N)O2 (stereo not shown) :: < 10 nM
N#CC1=C(N)Oc2[nH]ncc2C1(c1cc(C#N)cc(C(=O)O)c1)C1CCC1 (stereo not shown) :: < 10000 nM
Cc1n[nH]c2c1C(c1cc(Cl)cc(Oc3ccc(Cl)cc3)c1)(C1CCC1)C(C#N)=C(N)O2 (stereo not shown) :: < 10 nM

Field: EC50. Fill in for each record below.
1. Cc1n[nH]c2c1C(c1cc(C#N)cc(C(F)(F)F)c1)(C1CC=CC1)C(C#N)=C(N)O2 (stereo not shown)
2. COc1c(Br)cc(C2(C3CCC3)C(C#N)=C(N)Oc3[nH]nc(C)c32)cc1Br (stereo not shown)

Reply:
["< 10 nM", "< 10 nM"]

Field: EC50. Fill in for each record below.
1. COc1n[nH]c2c1C(c1cc(C#N)cc(C(F)(F)F)c1)(C1CC1)C(C#N)=C(N)O2 (stereo not shown)
2. Cc1n[nH]c2c1C(c1cc(Cl)cc(-c3ccco3)c1)(C1CCC1)C(C#N)=C(N)O2 (stereo not shown)

Reply:
1. < 100 nM
2. < 10 nM

Field: EC50. Fill in for each record below.
1. Cc1n[nH]c2c1C(c1cccc(C(C)(F)F)c1)(C1CCC1)C(C#N)=C(N)O2 (stereo not shown)
2. Cc1n[nH]c2c1C(c1cc(Br)cc(C#N)c1)(C(C)C)C(C#N)=C(N)O2 (stereo not shown)
3. Cc1n[nH]c2c1C(c1cc(N3CCOCC3)cc(C(F)(F)F)c1)(C1CCC1)C(C#N)=C(N)O2 (stereo not shown)
4. Cc1n[nH]c2c1C(c1ccc(F)c(OC(F)(F)F)c1)(C1CCC1)C(C#N)=C(N)O2 (stereo not shown)
5. Cc1n[nH]c2c1C(c1cc(C#N)cc(C(F)(F)F)c1)(C1CCC1)C(C#N)=C(N)O2 (stereo not shown)
6. C#CCCC1(c2cc(Cl)cc(Cl)c2)C(C#N)=C(N)Oc2[nH]nc(C)c21 (stereo not shown)

Reply:
["< 100 nM", "< 10 nM", "< 10 nM", "< 10 nM", "< 10 nM", "< 100 nM"]

---

Molecular target: Arabidopsis thaliana SHMT
Experiment: SHMT activity assay (ED50 SHMT), coupled with N5,N10-CH2-THF dehydrogenase, NADH at 340 nm
Assay type: biochemical
Conditions: Table 2; values given as upper bounds
observable: EC50

CCC(=O)N(C)c1cc(C#N)cc(C2(C3CCC3)C(C#N)=C(N)Oc3[nH]nc(C)c32)c1 (stereo not drawn) [Compound 2.611] :: < 10 nM
CCC1(c2cccc(C(F)(F)F)c2)C(C#N)=C(N)Oc2[nH]ncc21 (stereo not drawn) [Compound 2.63.] :: < 10000 nM

Task item: May I ask what EC50 has been recorded for Cc1n[nH]c2c1C(c1cc(F)c(O)c(F)c1)(C1CCC1)C(C#N)=C(N)O2 (stereo not drawn) [Compound 2.449] ?
Reply: < 100 nM

---

Target: Arabidopsis thaliana SHMT
Test: SHMT activity assay (ED50 SHMT), coupled with N5,N10-CH2-THF dehydrogenase, NADH at 340 nm
Format: biochemical
Conditions: Table 2; values given as upper bounds
pEC50: −log10 of the molar value.
observable: pEC50

Reference set, count: 3
CCC1(c2ccc(OCc3ccccc3)cc2)C(C#N)=C(N)Oc2[nH]nc(C)c21 (stereo not shown) [Compound 2.28.] :: > 6.00
Cc1n[nH]c2c1C(c1cccc(C#N)c1)(C1CCC1)C(C#N)=C(N)O2 (stereo not shown) [Compound 2.192.] :: > 7.00
N#CC1=C(N)Oc2[nH]nc(C3CC3)c2C1(c1ccc(Cl)cc1)C1CCC1 (stereo not shown) [Compound 2.140.] :: > 5.00

Field: pEC50. Fill in for each record below.
1. Cc1n[nH]c2c1C(c1ccc(Cl)c(Cl)c1)(C1CCC1)C(C#N)=C(N)O2 (stereo not shown) [Compound 2.193.]
2. Cc1n[nH]c2c1C(c1ccc(Cl)c(Cl)c1)(C1CCCCC1)C(C#N)=C(N)O2 (stereo not shown) [Compound 2.212.]

Reply:
> 8.00
> 5.00

Field: pEC50. Fill in for each record below.
1. Cc1n[nH]c2c1C(c1cc(Cl)cc(Oc3cccc(F)c3)c1)(C1CC1)C(C#N)=C(N)O2 (stereo not shown) [Compound 2.190.]
2. Cc1n[nH]c2c1C(c1cc(C#N)cc(-c3ccc(C(=O)O)c(F)c3)c1)(C1CCC1)C(C#N)=C(N)O2 (stereo not shown) [Compound 2.560]

Reply:
["> 7.00", "> 8.00"]

---

Target: Arabidopsis thaliana SHMT
Assay: SHMT activity assay (ED50 SHMT), coupled with N5,N10-CH2-THF dehydrogenase, NADH at 340 nm
Format: biochemical
Conditions: Arabidopsis thaliana SHMT enzyme assay; values given as upper bounds
pEC50: −log10 of the molar value.
Could you please report measured pEC50 for the items listed next?

Reference set, count: 3
Cc1n[nH]c2c1C(c1cc(C#N)cc(-c3cc(C(=O)O)co3)c1)(C1CCC1)C(C#N)=C(N)O2 (stereo not shown) :: > 8.00
Cc1n[nH]c2c1C(c1cc(C#N)cc(N(C)C(=O)CCCC(=O)O)c1)(C(C)C)C(C#N)=C(N)O2 (stereo not shown) :: > 8.00
Cc1n[nH]c2c1C(c1ccc(CCC#N)c(-c3nnn[nH]3)c1)(C(C)C)C(C#N)=C(N)O2 (stereo not shown) :: > 6.00

Field: pEC50. Fill in for each record below.
1. Cc1n[nH]c2c1C(c1cc(CCCC#N)cc(-c3nnn[nH]3)c1)(C(C)C)C(C#N)=C(N)O2 (stereo not shown)
2. Cc1n[nH]c2c1C(c1cc(C#N)cc(N(C)C(=O)CCC#N)c1)(C1CCC1)C(C#N)=C(N)O2 (stereo not shown)
3. Cc1n[nH]c2c1C(c1cc(Cl)cc(N(C)C(=O)CCCC#N)c1)(C1CCC1)C(C#N)=C(N)O2 (stereo not shown)
4. Cc1n[nH]c2c1C(c1cc(C#N)cc(N(C)C(=O)CCCC#N)c1)(C1CCC1)C(C#N)=C(N)O2 (stereo not shown)

Reply:
["> 7.00", "> 8.00", "> 7.00", "> 8.00"]
